# test-details: Cytotoxicity analysis by MTT cell viability assay
# Assay type: cell-based, human
# applied-conditions: human, HaCaT keratinocytes; 5 μg/mL sargachromenol, 24 hours, relative to control group (100%), no UV; read-out: reduction of cell viability
readout-label: cytotoxicity at 24 h, 5 μg/mL (%)
Respond numerically; units are % and should not be typed.

cytotoxicity at 24 h, 5 μg/mL measured on CC(C)=CCC/C(=C/CC/C(C)=C/CCC1(C)C=Cc2cc(O)cc(C)c2O1)C(=O)O (stereo not shown) = 40
